Where do the numbers come from? From PubChem BioAssay AID1963952.

# target.or.system: Peptidyl-prolyl cis-trans isomerase FKBP1A (Homo sapiens)
# assay.method.text: ligand binding to FKBP1A protein – biochemical, TR-FRET, dose response (AID 1963952)
# reported.conditions: FKBP12 binding
Would you kindly list pEC50 for each of these compounds?
pEC50 is defined as minus the log10 of a concentration measured in mol/L.

Prompt line: Supply pEC50 value. Item: CCC(C)(C)C(=O)C(=O)N1CCCC[C@H]1C(=O)N[C@H](CCc1ccc(OC)cc1)C(=O)N1[C@@H]2CC[C@H]1CC(Nc1nc(NCCc3sc(N)nc3C)nc(N(C)Cc3nnc4n3CCC4)n1)C2 (stereo partly drawn)
Response line: 4.75

Prompt line: Supply pEC50 value. Item: CCC(C)(C)C(=O)C(=O)N1CCCC[C@H]1C(=O)N[C@H](CCc1ccc(OC)cc1)C(=O)N1[C@@H]2CC[C@H]1CC(Nc1nc(NCCc3sc(N)nc3C)nc(NCCn3cnc4ccccc43)n1)C2 (stereo partly drawn)
Response line: 4.74

Prompt line: Supply pEC50 value. Item: CCC(C)(C)C(=O)C(=O)N1CCCC[C@H]1C(=O)N[C@H](CCc1ccc(OC)cc1)C(=O)N1[C@@H]2CC[C@H]1CC(Nc1nc(NCCc3sc(N)nc3C)nc(N3CCn4ncnc4C3)n1)C2 (stereo partly drawn)
Response line: 4.53

###

Would you kindly list EC50 for each of these compounds?
# target.or.system: Peptidyl-prolyl cis-trans isomerase FKBP1A (Homo sapiens) (UniProt P62942)
# Sequence (P62942 whole entry, looked up): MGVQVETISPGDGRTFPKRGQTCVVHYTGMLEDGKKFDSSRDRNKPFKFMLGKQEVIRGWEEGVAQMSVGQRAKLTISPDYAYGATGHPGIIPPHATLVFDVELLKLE
# assay.method.text: ligand binding to FKBP1A protein – biochemical, TR-FRET, dose response (AID 1963952)
# reported.conditions: FKBP12 binding

Prompt line: Supply EC50 value. Item: CCC(C)(C)C(=O)C(=O)N1CCCC[C@H]1C(=O)N[C@H](CCc1ccc(OC)cc1)C(=O)N1[C@@H]2CC[C@H]1CC(NC(C)=O)C2 (stereo partly specified)
Response line: 28.9 µM

Prompt line: Supply EC50 value. Item: CCC(C)(C)C(=O)C(=O)N1CCCC[C@H]1C(=O)N[C@H](CCc1ccc(OC)cc1)C(=O)N1[C@@H]2CC[C@H]1CC(Nc1nc(NCCc3ccccc3)nc(N3CCn4ncnc4C3)n1)C2 (stereo partly specified)
Response line: 36 µM

Prompt line: Supply EC50 value. Item: CCC(C)(C)C(=O)C(=O)N1CCCC[C@H]1C(=O)O[C@H](CCc1ccccc1)C(=O)N1[C@@H]2CC[C@H]1CC(Nc1nc(NCCc3sc(N)nc3C)nc(N3CCn4ncnc4C3)n1)C2 (stereo partly specified)
Response line: 17.1 µM

Prompt line: Supply EC50 value. Item: CCC(C)(C)C(=O)C(=O)N1CCCC[C@H]1C(=O)N[C@H](CCc1ccc(OC)cc1)C(=O)N1[C@@H]2CC[C@H]1CC(Nc1nc(NCCc3sc(N)nc3C)nc(NCc3ccnc(CO)c3)n1)C2 (stereo partly specified)
Response line: 36.8 µM

Prompt line: Supply EC50 value. Item: `CCC(C)(C)C(=O)C(=O)N1CCCC[C@H]1C(=O)N[C@H](CCc1ccc(OC)cc1)C(=O)N1CC(Nc2nc(NCCc3sc(N)nc3C)nc(NCCn3cnc4ccccc43)n2)C1`
Response line: 35 µM

Prompt line: Supply EC50 value. Item: `CCC(C)(C)C(=O)C(=O)N1CCCC[C@H]1C(=O)N[C@H](CCc1ccc(OC)cc1)C(=O)N1CC[C@H](Nc2nc(NCCc3sc(N)nc3C)nc(N(C)Cc3nnc4n3CCC4)n2)C1`
Response line: 13.3 µM
